Reference for the values: ChEMBL document CHEMBL1123868

- Organism: Rattus norvegicus
- assay: Antihypertensive activity expressed as percentage of base-line systolic blood pressure of base-line values in spontaneously hypertensive rats (SHR) was reported after 2 hr; also: test concentration or dose not given here
- Type: functional, Artery
Each entry below lists one item and its recorded Baseline systolic BP value.
Just the number in %, nothing appended.

Example entries begin here.
CC(C)NCC(O)COc1ccc(C[S+]([O-])CC2CC2)cc1 (stereo unspecified): -4
CC(C)NCC(O)COc1cccc2ccccc12 (stereo unspecified) [PROPRANOLOL]: 0
CC(C)NCC(O)COc1ccc(C[S+]([O-])CC2CCCC2)cc1 (stereo unspecified): -5
CC(C)NCC(O)COc1ccc(CCS(=O)(=O)CC2CCCO2)cc1.Cl (stereo unspecified): -22
CC(C)NCC(O)COc1ccc(CCOCC2CCCCC2)cc1.Cl (stereo unspecified): -14

I am curious: what Baseline systolic BP value has been reported for CC(C)NCC(O)COc1ccc(CCS(=O)(=O)CC2CCCCC2)cc1.Cl (stereo unspecified) ?
-6

Also CC(C)NCC(O)COc1ccc(CCCOCC2CCC2)cc1.O=C(O)C(=O)O (stereo unspecified) , if possible.
-11

Also CC(C)NCC(O)COc1ccc(CCOCC2CCC2)cc1.Cl (stereo unspecified) , if possible.
-16

Also CC(CC#N)NCC(O)COc1ccc(CCOCC2CCC2)cc1.Cl (stereo unspecified) , if possible.
-2

Also CC(C)NCC(O)COc1ccc(CCOC2CCCCC2)cc1 (stereo unspecified) , if possible.
4

Also CC(C)NCC(O)COc1ccc(COCC2CCC2)cc1.Cl (stereo unspecified) , if possible.
-9
